Values were extracted from patent US20030068675.

Target: ZFP SBS#651 (synthetic)
Sequence (chain, as listed by the source): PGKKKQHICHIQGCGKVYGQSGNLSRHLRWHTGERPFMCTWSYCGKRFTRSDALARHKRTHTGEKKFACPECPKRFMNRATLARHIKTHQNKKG
Assay: EMSA
Conditions: tags: MBP fusion
REPORTED_METRIC: pKd
Give bare numbers, as −log10 of the molar value.

Please report the recorded pKd for GTTGTGGAAT (dsDNA) DNA 1: GTTGTGGAAT DNA 2: ATTCCACAAC . 7.17
